target: KRAS Q61H (Homo sapiens (Human), UniProt P01116+P62937, Q61H); assay: Ras-Raf (BRAF RBD) disruption / FRET / MOA assay, KRAS Q61H; type: biochemical; conditions: Ras-Raf disruption/FRET/MOA assay; class symbols; read-out: KRAS Q61H FRET data IC50
Sequence (P01116-2 other isoform, or with tags, fused parts or gaps Q61H): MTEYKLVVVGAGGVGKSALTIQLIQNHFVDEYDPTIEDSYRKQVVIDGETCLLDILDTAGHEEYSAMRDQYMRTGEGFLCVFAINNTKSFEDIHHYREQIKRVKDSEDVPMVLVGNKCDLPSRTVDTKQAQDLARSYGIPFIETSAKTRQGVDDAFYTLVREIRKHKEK
Sequence (P62937 whole entry): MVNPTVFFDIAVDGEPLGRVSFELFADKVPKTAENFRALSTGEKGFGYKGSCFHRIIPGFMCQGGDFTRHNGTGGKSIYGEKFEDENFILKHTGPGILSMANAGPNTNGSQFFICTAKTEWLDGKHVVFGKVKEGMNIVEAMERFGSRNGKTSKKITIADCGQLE
Experimental Endpoint: IC50

Below: 5 compounds and their reported IC50.
Compound: CCn1c(-c2cccnc2[C@H](C)OC)c2c3cc(ccc31)-c1cnc(o1)C[C@H](NC(=O)[C@@H](COC1CN(C(=O)C#CC(C)(C)N(C)C)C1)C(C)C)C(=O)N1CCC[C@H](N1)C(=O)OCC(C)(C)C2 (atropisomer, axis not shown)
IC50: > 10 µM
//
Compound: CCn1c(-c2cccnc2[C@H](C)OC)c2c3cc(ccc31)-c1cccc(c1)C[C@H](NC(=O)[C@H](C(C)C)N1CC[C@]3(CCN(C(=O)C#C[C@H]4COCCN4C4COC4)C3)C1=O)C(=O)N1CCC[C@H](N1)C(=O)OCC(C)(C)C2 (atropisomer, axis not shown)
IC50: 1 to 10 µM
//
Compound: CCn1c(-c2cccnc2[C@H](C)OC)c2c3cc(ccc31)-c1csc(n1)C[C@H](NC(=O)[C@H](C(C)C)N(C)C(=O)N1CCCOC13CN(C(=O)C#CC(C)(C)N(C)C)C3)C(=O)N1CCC[C@H](N1)C(=O)OCC(C)(C)C2 (atropisomer, axis not shown)
IC50: 1 to 10 µM
//
Compound: CCn1c(-c2cccnc2[C@H](C)OC)c2c3cc(ccc31)N1CCO[C@@H](C[C@H](NC(=O)[C@@H](COC3CN(C(=O)C#CC(C)(C)N(C)C)C3)C(C)C)C(=O)N3CCC[C@H](N3)C(=O)OCC(C)(C)C2)C1 (atropisomer, axis not shown)
IC50: > 10 µM
//
Compound: CCn1c(-c2cccnc2[C@H](C)OC)c2c3cc(ccc31)-c1nc(co1)C[C@H](NC(=O)[C@@H](COC1CN(C(=O)C#CC(C)(C)N(C)C)C1)C(C)C)C(=O)N1CCC[C@H](N1)C(=O)OCC(C)(C)C2 (atropisomer, axis not shown)
IC50: > 10 µM

In plain terms, C=CC(=O)N1CC[C@]2(COCCN2C(=O)N(C)[C@H](C(=O)N[C@H]2Cc3nc(cs3)-c3ccc4c(c3)c(c(-c3cccnc3[C@H](C)OC)n4CC)CC(C)(C)COC(=O)[C@@H]3CCCN(N3)C2=O)C(C)C)C1 (atropisomer, axis not shown) has a documented IC50 of 0.01 to 0.1 µM

In plain terms, "CCn1c(-c2cccnc2[C@H](C)OC)c2c3cc(ccc31)-c1cccc(c1)C[C@H](NC(=O)[C@H](C(C)C)N1CC[C@@]3(CCN(C(=O)C#C[C@@H]4COCCN4C4COC4)C3)C1=O)C(=O)N1CCC[C@H](N1)C(=O)OCC(C)(C)C2" has a documented IC50 of 0.1 to 1 µM

In plain terms, C=CC(=O)N1CCO[C@@H]2CCN(C(=O)N(C)[C@H](C(=O)N[C@H]3Cc4nc(cs4)-c4ccc5c(c4)c(c(-c4cccnc4[C@H](C)OC)n5CC)CC(C)(C)COC(=O)[C@@H]4CCCN(N4)C3=O)C(C)C)C[C@@H]21 (atropisomer, axis not shown) has a documented IC50 of 0.1 to 1 µM

In plain terms, CCn1c(-c2cccnc2[C@H](C)OC)c2c3cc(ccc31)-c1nc(nn1C)C[C@H](NC(=O)[C@@H](COC1CN(C(=O)C#CC(C)(C)N(C)C)C1)C(C)C)C(=O)N1CCC[C@H](N1)C(=O)OCC(C)(C)C2 (atropisomer, axis not shown) has a documented IC50 of 1 to 10 µM

In plain terms, CCn1c(-c2cccnc2[C@H](C)OC)c2c3cc(ccc31)-c1cc(CF)cc(c1)C[C@H](NC(=O)[C@H](C(C)C)N(C)C(=O)[C@H]1CCN(C(=O)C#CC(C)(C)N(C)C)C1)C(=O)N1CCC[C@H](N1)C(=O)OCC(C)(C)C2 (atropisomer, axis not shown) has a documented IC50 of 1 to 10 µM

In plain terms, C=CC(=O)N1CC[C@]2(C1)CN(C(=O)N(C)[C@H](C(=O)N[C@H]1Cc3nc(cs3)-c3ccc4c(c3)c(c(-c3cccnc3[C@H](C)OC)n4CC)CC(C)(C)COC(=O)[C@@H]3CCCN(N3)C1=O)C(C)C)CCO2 (atropisomer, axis not shown) has a documented IC50 of 0.01 to 0.1 µM

In plain terms, C=CC(=O)N1C[C@@H]2CN(C(=O)N(C)[C@H](C(=O)N[C@H]3Cc4nc(cs4)-c4ccc5c(c4)c(c(-c4cccnc4[C@H](C)OC)n5CC)CC(C)(C)COC(=O)[C@@H]4CCCN(N4)C3=O)C(C)C)[C@@H]2C1 (atropisomer, axis not shown) has a documented IC50 of 0.1 to 1 µM

In plain terms, C=CC(=O)N1CC[C@H](C(=O)N(C)[C@H](C(=O)N[C@H]2Cc3cccc(c3)-c3ccc4c(c3)c(c(-c3cccnc3[C@H](C)OC)n4CC#CC)CC(C)(C)COC(=O)[C@@H]3CCCN(N3)C2=O)C(C)C)C1 (atropisomer, axis not shown) has a documented IC50 of 1 to 10 µM

In plain terms, CCn1c(-c2cccnc2[C@H](C)OC)c2c3cc(ccc31)-c1csc(n1)C[C@H](NC(=O)[C@@H](COC1CN(C(=O)C#CC(C)(C)N(C)C)C1)OC)C(=O)N1CCC[C@H](N1)C(=O)OCC(C)(C)C2 (atropisomer, axis not shown) has a documented IC50 of 0.1 to 1 µM

Numbers sourced from patent US11566007B2.
